Target: MtncADH (Mt5g083530), Medicago truncatula noncanonical arogenate dehydrogenase, wild type (Medicago truncatula)
Construct: wild type
Sequence (A0A217FAR3 1-266): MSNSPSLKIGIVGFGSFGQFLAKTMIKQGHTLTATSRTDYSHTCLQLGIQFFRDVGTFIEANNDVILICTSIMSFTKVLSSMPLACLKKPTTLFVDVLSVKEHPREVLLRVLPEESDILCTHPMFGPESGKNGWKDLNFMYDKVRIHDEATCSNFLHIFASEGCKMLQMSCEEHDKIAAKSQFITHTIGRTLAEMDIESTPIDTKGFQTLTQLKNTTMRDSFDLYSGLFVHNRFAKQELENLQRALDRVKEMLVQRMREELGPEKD
Assay: ADH and PDH assay: steady-state kinetics and Tyr inhibition, MtncADH wild type
Assay type: biochemical
Conditions: IC50^Tyr, substrate arogenate (1 mM), 0.5 mM NADP^+
propertyName: IC50 (µM)

[[record]]
itemsmiles = "N[C@@H](Cc1ccc(O)cc1)C(=O)O"
assayvalue = 2200


---

Biological target: Medicago truncatula MtPDH variant C220D, SEQ ID NO: 1 (Medicago truncatula, UniProt A0A0A0R205, C220D)
Sequence (A0A0A0R205 1-268 C220D): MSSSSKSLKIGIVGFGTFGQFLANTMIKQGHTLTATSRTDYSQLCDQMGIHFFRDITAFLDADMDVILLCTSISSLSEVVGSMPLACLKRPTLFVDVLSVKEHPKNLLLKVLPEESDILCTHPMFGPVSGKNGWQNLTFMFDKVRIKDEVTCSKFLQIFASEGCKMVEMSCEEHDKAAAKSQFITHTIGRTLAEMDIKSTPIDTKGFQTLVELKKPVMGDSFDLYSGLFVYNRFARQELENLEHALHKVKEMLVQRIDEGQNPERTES
Test: ADH and PDH assay: steady-state kinetics and Tyr inhibition, MtPDH C220D
propertyName: IC50 (mM)

[[record]]
itemsmiles = "N[C@@H](Cc1ccc(O)cc1)C(=O)O"
propertyname = "IC50"
valueunits = "mM"
assayvalue = 8.2

